// data source = patent US20150337013A1

Test system: Enterococcus faecium EFM.384, Daptomycin resistant mutant (14-A)
Format: cell-based
TEST_SETTINGS: MHBc with 50 mg/L calcium, 18-20 hours at 37° C.
# Lookup of reported Efm384 MIC keyed by entry

{"COMPOUND": "CCCCCCCCCC(C)(C)C(=O)N[C@@H](Cc1c[nH]c2ccccc12)C(=O)N[C@H](CC(N)=O)C(=O)N[C@@H](CC(=O)O)C(=O)N[C@@H]1C(=O)NCC(=O)N[C@@H](CCCN)C(=O)N[C@@H](CC(=O)O)C(=O)N[C@H](C)C(=O)N[C@@H](CC(=O)O)C(=O)NCC(=O)N[C@H](CO)C(=O)N[C@@H]([C@H](C)CC(=O)O)C(=O)N[C@@H](CC(=O)c2ccccc2N)C(=O)O[C@@H]1C", "Efm384 MIC": ">32 µg/mL"}
{"COMPOUND": "CCCSc1ccc(-c2csc(C(=O)N[C@@H](Cc3c[nH]c4ccccc34)C(=O)N[C@H](CC(N)=O)C(=O)N[C@@H](CC(=O)O)C(=O)N[C@@H]3C(=O)NCC(=O)N[C@@H](CCCN)C(=O)N[C@@H](CC(=O)O)C(=O)N[C@H](C)C(=O)N[C@@H](CC(=O)O)C(=O)NCC(=O)N[C@H](CO)C(=O)N[C@@H]([C@H](C)CC(=O)O)C(=O)N[C@@H](CC(=O)c4ccccc4N)C(=O)O[C@@H]3C)c2)cc1", "Efm384 MIC": "32 µg/mL"}
{"COMPOUND": "CCCCCc1ccc(/C(C)=C/C(=O)N[C@@H](Cc2c[nH]c3ccccc23)C(=O)N[C@H](CC(N)=O)C(=O)N[C@@H](CC(=O)O)C(=O)N[C@@H]2C(=O)NCC(=O)N[C@@H](CCCN)C(=O)N[C@@H](CC(=O)O)C(=O)N[C@H](C)C(=O)N[C@@H](CC(=O)O)C(=O)NCC(=O)N[C@H](CO)C(=O)N[C@@H]([C@H](C)CC(=O)O)C(=O)N[C@@H](CC(=O)c3ccccc3N)C(=O)O[C@@H]2C)cc1", "Efm384 MIC": "4 µg/mL"}
{"COMPOUND": "CCCCCCCCOc1ccc(C(=O)N[C@@H](Cc2c[nH]c3ccccc23)C(=O)N[C@H](CC(N)=O)C(=O)N[C@@H](CC(=O)O)C(=O)N[C@@H]2C(=O)NCC(=O)N[C@@H](CCCN)C(=O)N[C@@H](CC(=O)O)C(=O)N[C@H](C)C(=O)N[C@@H](CC(=O)O)C(=O)NCC(=O)N[C@H](CO)C(=O)N[C@@H]([C@H](C)CC(=O)O)C(=O)N[C@@H](CC(=O)c3ccccc3N)C(=O)O[C@@H]2C)cc1", "Efm384 MIC": "4 µg/mL"}
{"COMPOUND": "CCCCCC1CCC(NC(=O)N[C@@H](Cc2c[nH]c3ccccc23)C(=O)N[C@H](CC(N)=O)C(=O)N[C@@H](CC(=O)O)C(=O)N[C@@H]2C(=O)NCC(=O)N[C@@H](CCCN)C(=O)N[C@@H](CC(=O)O)C(=O)N[C@H](C)C(=O)N[C@@H](CC(=O)O)C(=O)NCC(=O)N[C@H](CO)C(=O)N[C@@H]([C@H](C)CC(=O)O)C(=O)N[C@@H](CC(=O)c3ccccc3N)C(=O)O[C@@H]2C)CC1 (some centres unmarked)", "Efm384 MIC": "16 µg/mL"}
